# experimental-system: SARS-CoV-2 spike protein, WA1/2020, borne on lentiviral pseudovirus (SARS-CoV-2, WA01/2020 strain, UniProt P0DTC2 14-1273)
# assay-text: cell-based or functional assay
Examples of binders with documented Pseudo Neut, WA1/2020 IC50 (pM) follow.

binder: antibody 1679 (antibody, V domains shown) VH: QITLKESGPTLVKPTQTLTLTCTFSGFSLSTVGVGVAWIRQPPGKALEWLALIYWDDDKRYSPSLKSRLTITKDTSKNHVVLTMTNMDPVDTATYYCAHHIIAALVDVWGKGTTVTVSS VL: QSALTQPASVSGSPGQSITISCTGTSSDVGGNNYVSWYQHHPGEAPKLMIYEVSNRPSGVSNRFSGSKSGNTASLTISGLQAEDEADYYCSSYTTSSTLVVFGGGSKLTVL
Pseudo Neut, WA1/2020 IC50 (pM): > 163 pM

binder: antibody 1589 (antibody, V domains shown) VH: EVQLVESGGGLIQVGGSLRLSCAASGLTVTSNYMNWVRQGPGKGLEWVSLIYSGGTTYYADSVKGRFTISRDDSKNTLYLQMNSLRAEDTAVYYCARPIVGARSGMDVWGQGTAVTVSS VL: DIQMTQSPSSLSASVGDRVTITCQASQDINKYLNWYQQKPGKAPKLLIYDASNLETGVPSRFSGSGSGTDFTFTISSLQPEDLATYYCHQFDNLPGTFGGGTKVEIK
Pseudo Neut, WA1/2020 IC50 (pM): 1170 pM

Input line: Suppose we examine the binder antibody 1815 (antibody, V domains shown) VH: QVQLQESGPGLVKPSETLSLTCSVSGGSINYYYWSWIRKSPGKGLEWIGFIYSSGTTNYNPSLKSRVSMSIGTSKRQFSLKLSSVTAADSAVYYCARHSRSCTNGVCQTYYYYALDVWGHGTTVTVSS VL: QSVLTQPPSVSGAPGQRVTISCTGSSSNIGAGYDVHWYQQLPGTAPKLLIYANTHRPSGVPDRFSASKSGTSASLAIAGLQAEDEGDYYCQSYDGSLSESAVFGGGTRLTVL ; what Pseudo Neut, WA1/2020 IC50 (pM) value has been reported?
Output line: 10.2 pM
